target: human GABA A α5β3γ2 receptor (Homo sapiens, UniProt P18507+P31644); test: [3H]flumazenil competition binding to HEK293 cells expressing human GABA A receptors; details: competition for [3H]flumazenil (0.5 nM for α5); HEK293 cells expressing human (transiently transfected) receptors; means of two determinations; read-out: hKi GABA Aα5
The entries below come with measured log10(Ki) values attached.
Response schema: value (number) is log10 of Ki in units of nM.

{"compound": "CCCCc1noc(C)c1CNc1ccc(C(=O)NC2CCOCC2)cn1 [Example 44]", "log10(Ki)": 1.83}
{"compound": "CCCCc1noc(C)c1COc1ccc(C(=O)NC(C)CO)cn1 (single isomer, unassigned; (+)) [Example 11]", "log10(Ki)": 0.86}
{"compound": "CCCc1noc(C)c1COc1ccc(C(=O)NC(C)C)cn1 [Example 1]", "log10(Ki)": 1.66}
{"compound": "Cc1onc(C2CCCCC2)c1COc1ccc(C(=O)NC(C)CO)cn1 (stereo not shown) [Example 36]", "log10(Ki)": 0.57}
{"compound": "CCCc1noc(C)c1COc1ccc(C(=O)NC2CCOCC2)cn1 [Example 2]", "log10(Ki)": 1.71}
{"compound": "CCCCc1noc(C)c1COc1ccc(C(=O)NC(C)C)cn1 [Example 5]", "log10(Ki)": 0.61}
{"compound": "Cc1onc(N2CCCC2)c1COc1ccc(C(=O)NC2CCOCC2)cn1 [Example 41]", "log10(Ki)": 0.59}
{"compound": "CCCCc1noc(C)c1COc1ccc(C(=O)N[C@@H](C)CO)cn1 [Example 12]", "log10(Ki)": 0.58}
{"compound": "Cc1onc(C2CCOCC2)c1COc1ccc(C(=O)N[C@@H](C)CO)cn1 [Example 38]", "log10(Ki)": 1.62}
{"compound": "CCCCc1noc(C)c1COc1ccc(C(=O)NC(C)(C)CO)cn1 [Example 8]", "log10(Ki)": 1.18}

Looking up CCCCc1noc(C)c1COc1ccc(C(=O)N[C@@H](C)C(F)(F)F)cn1 [Example 20] , I see its log10(Ki) listed as 0.88
